- systemName: UniProtKB Q9Y233
- assaySummary: PDE10 enzyme inhibition, IMAP TR-FRET assay (MPDE10A7 Enzyme Activity and Inhibition)
- Type: biochemical
- conditionNotes: PDE10 enzyme inhibition; average IC50 data for each compound; read-out: Average IC50
Classify by IC50. Ranges: lower = under 1 nM, middle = from 1 nM up to 20 nM, upper = 20 nM and over

Worked set:
O=C(O)c1ccc(-c2nccnc2Oc2ccc(C(=O)c3nc4ccccc4[nH]3)cc2)cc1 [drawing 761]
middle
OCC1CCCCN1c1nccnc1Oc1ccc(Nc2nc3ccccc3s2)cc1 (centres unmarked) [drawing 730]
upper
O=C(c1ccc(Oc2nccnc2C2=CCCOC2)cc1)c1nc2ccccc2[nH]1
middle
CC1(C)CCC(=O)[C@@H](c2nccnc2Oc2ccc(C(=O)c3nc4ccccc4[nH]3)cc2)C1
upper
COc1cnccc1-c1nccnc1Oc1ccc(C(=O)c2nc3ccccc3[nH]2)cc1 [drawing 960]
lower
CC(=O)OCC(=O)N1CCC(c2nccnc2Oc2ccc(C(=O)c3nc4ccccc4[nH]3)cc2)CC1 [drawing 991]
lower
c1ccc2sc(Nc3ccc(Oc4nccnc4-c4ccc(N5CCOCC5)nc4)cc3)nc2c1 [drawing 762]
upper
COc1nc2ccccc2cc1-c1nccnc1Oc1ccc(C(=O)c2nc3ccccc3[nH]2)cc1 [drawing 943]
upper

Exercise: Classify this compound: Cn1c(C(=O)c2ccc(Oc3nccnc3C3CCOCC3)cc2)nc2ccccc21 [drawing 874]
Key: middle

Exercise: Classify this compound: O=C(c1ccc(Oc2nccnc2-c2ccnc3ccccc23)cc1)c1nc2ccccc2[nH]1 [drawing 799]
Key: middle

Exercise: Classify this compound: O=C(c1ccc(Oc2nccnc2[C@@H]2CCCOCC2)cc1)c1nc2ccccc2[nH]1 (stereo in doubt)
Key: middle

Exercise: Classify this compound: O=C(c1ccc(Oc2nccnc2OCc2cccnc2)cc1)c1nc2ccccc2[nH]1 [drawing 904]
Key: upper

Exercise: Classify this compound: C[C@H]1CN(c2nccnc2Oc2ccc(Nc3nc4ccccc4s3)cc2)CC(=O)N1 [drawing 835]
Key: middle

Exercise: Classify this compound: OC1CCN(c2nccnc2Oc2ccc(Nc3nc4ccccc4s3)cc2)CC1 [drawing 717]
Key: middle
